Please provide measured TGI for the entries that follow.
- Test system: HOP-62 NSCLC
- RUN DESCRIPTION: NCI tumour cell line growth inhibition, 48 h

Q) Input COc1ccc(-c2c3c(n(C4OC(CO)C(O)C(O)C4O)c(=S)c2C#N)CC(C)(C)CC3=O)cc1 (centres undefined) , output reported TGI.
A) > 100 µM

Q) Input "Oc1ccc(/C=N/Nc2nc3ccccc3s2)c(O)c1" , output reported TGI.
A) > 100 µM

Q) Input "O=C(NCCN1CCOCC1)Nc1ccc(-c2cc3c(Nc4ccc(Oc5cccc(C(F)(F)F)c5)c(Cl)c4)ncnc3s2)cc1" , output reported TGI.
A) 5.93 µM

Q) Input "COc1ccc2[nH]c(-c3cccc(N(C)C)c3)cc(=O)c2c1" , output reported TGI.
A) 94.2 µM

Q) Input C[C@H]1COC2(c3ccccc3)CCC(=O)N12 (some centres undefined) , output reported TGI.
A) > 100 µM

Q) Input "O=c1cc(NCC2CCCCC2)[nH]c(=O)[nH]1" , output reported TGI.
A) > 100 µM

Q) Input "NC(C(F)(F)F)(C(F)(F)F)P(=O)(c1ccccc1)c1ccccc1" , output reported TGI.
A) > 100 µM

Q) Input "C[C@@H]1CC[C@H]2C(COC/C=C/COCC3=C(C(F)(F)F)O[C@@H]4O[C@@]5(C)CC[C@H]6[C@H](C)CC[C@@H]3[C@@]46OO5)=C(C(F)(F)F)O[C@@H]3O[C@@]4(C)CC[C@@H]1[C@]32OO4" , output reported TGI.
A) > 100 µM

Q) Input CC(=O)c1c(O)ccc2c1CC(CC=O)O2 (centres undefined) , output reported TGI.
A) > 100 µM
